B1: VH:VL chains; a variant is named by its letters at X, in order (parent)
chain 1: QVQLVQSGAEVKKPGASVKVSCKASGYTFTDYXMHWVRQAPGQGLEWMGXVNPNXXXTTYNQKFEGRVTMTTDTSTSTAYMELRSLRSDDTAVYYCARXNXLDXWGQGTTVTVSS
chain 2: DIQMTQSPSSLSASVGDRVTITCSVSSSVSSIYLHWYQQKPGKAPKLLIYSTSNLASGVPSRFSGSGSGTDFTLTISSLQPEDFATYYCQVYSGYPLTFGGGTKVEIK

Variants of: B1
Test: yeast display scFab, FACS + sequencing
METRIC: non-specific binding call

[
  {
    "MUTATION_CODE": "SEARSSGV",
    "VAL": "no binding"
  },
  {
    "MUTATION_CODE": "VRTRGYLA",
    "VAL": "binds"
  },
  {
    "MUTATION_CODE": "DGGGGYWF",
    "VAL": "binds"
  },
  {
    "MUTATION_CODE": "FRAGGAAA",
    "VAL": "binds"
  },
  {
    "MUTATION_CODE": "FRGRSSAA",
    "VAL": "binds"
  },
  {
    "MUTATION_CODE": "VAARGDAA",
    "VAL": "no binding"
  }
]

Input: Returns the measured non-specific binding call for the input variant. Input: VKEADDVA
Output: no binding

Input: Returns the measured non-specific binding call for the input variant. Input: YTGTSDGV
Output: no binding

Input: Returns the measured non-specific binding call for the input variant. Input: SEGGDAGD
Output: no binding

Input: Returns the measured non-specific binding call for the input variant. Input: DAGAADVV
Output: no binding

Input: Returns the measured non-specific binding call for the input variant. Input: YRARSSLA
Output: binds

Input: Returns the measured non-specific binding call for the input variant. Input: YKKRGAWS
Output: binds

Input: Returns the measured non-specific binding call for the input variant. Input: AARADAVY
Output: no binding

Input: Returns the measured non-specific binding call for the input variant. Input: VRAGGFGA
Output: binds

Input: Returns the measured non-specific binding call for the input variant. Input: YRGKDSGS
Output: binds

Input: Returns the measured non-specific binding call for the input variant. Input: YRARSAVY
Output: binds

Input: Returns the measured non-specific binding call for the input variant. Input: YRTGGAGD
Output: no binding

Input: Returns the measured non-specific binding call for the input variant. Input: VRGGGFGD
Output: binds

The measured values listed here are drawn from the emibetuzumab library of Makowski et al. (2022).
